# SYSTEM: Kir3.1/Kir3.4 (Homo sapiens, UniProt P48544+P48549)
# Sequence (P48549 whole entry): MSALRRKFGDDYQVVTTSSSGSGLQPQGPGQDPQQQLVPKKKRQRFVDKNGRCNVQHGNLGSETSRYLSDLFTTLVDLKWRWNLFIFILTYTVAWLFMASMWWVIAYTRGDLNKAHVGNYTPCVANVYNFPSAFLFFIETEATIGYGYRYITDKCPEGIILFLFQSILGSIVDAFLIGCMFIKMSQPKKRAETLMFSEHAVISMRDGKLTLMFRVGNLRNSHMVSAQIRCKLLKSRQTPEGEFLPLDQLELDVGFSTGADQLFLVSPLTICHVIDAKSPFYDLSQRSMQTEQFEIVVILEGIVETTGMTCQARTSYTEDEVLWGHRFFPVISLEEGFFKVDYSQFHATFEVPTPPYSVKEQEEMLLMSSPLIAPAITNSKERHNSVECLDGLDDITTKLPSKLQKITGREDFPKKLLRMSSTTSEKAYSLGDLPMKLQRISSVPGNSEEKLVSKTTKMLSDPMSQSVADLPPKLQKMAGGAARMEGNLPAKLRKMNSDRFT
# Sequence (P48544 whole entry): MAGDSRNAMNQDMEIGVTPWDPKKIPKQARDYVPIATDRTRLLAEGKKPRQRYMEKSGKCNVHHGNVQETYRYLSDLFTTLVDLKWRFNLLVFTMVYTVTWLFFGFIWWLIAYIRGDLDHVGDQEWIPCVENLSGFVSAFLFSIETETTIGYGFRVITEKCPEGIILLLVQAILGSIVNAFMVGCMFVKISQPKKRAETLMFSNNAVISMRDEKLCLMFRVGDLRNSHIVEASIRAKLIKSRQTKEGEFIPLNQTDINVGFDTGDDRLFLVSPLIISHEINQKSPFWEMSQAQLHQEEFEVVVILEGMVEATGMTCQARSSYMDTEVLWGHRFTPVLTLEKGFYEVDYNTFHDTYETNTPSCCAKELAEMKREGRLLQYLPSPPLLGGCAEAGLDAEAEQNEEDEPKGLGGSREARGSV
# EXPERIMENT SUMMARY: Inhibition of GIRK-1/4 channel (unknown origin) expressed in HEK293 cells by automated patch clamp method

{"COMPOUND": "C/C=C(/C)C(=O)O[C@H]1C(C)=C[C@@]23C(=O)[C@@H](C=C(C)[C@@H](O)[C@]12O)[C@H]1[C@@H](C[C@H]3C)C1(C)C", "IC50 [nM]": 12100}
{"COMPOUND": "CC(=O)O[C@@H]1[C@@H](OC(C)=O)C(C)(C)/C=C/[C@H](C)[C@H](OC(C)=O)[C@@]2(O)C[C@H](C)[C@H](OC(=O)c3ccccc3)[C@@H]2/C=C(\\C)[C@@H]1OC(C)=O", "IC50 [nM]": 1690}
{"COMPOUND": "C/C=C(/C)C(=O)OCC1(C)[C@H]2[C@@H]3C=C(C)[C@@H](O)[C@]4(O)[C@@H](OC(=O)/C(C)=C\\C)C(C)=C[C@]4(C3=O)[C@H](C)C[C@H]21 (some centres not stated)", "IC50 [nM]": 1450}
{"COMPOUND": "C/C=C(\\C)C(=O)O[C@@H]1C[C@@H](OC(C)=O)C(C)(C)/C=C/[C@H](C)[C@H](OC(C)=O)[C@@]2(O)C[C@H](C)[C@H](OC(=O)c3ccccc3)[C@@H]2/C=C/1C", "IC50 [nM]": 1310}
{"COMPOUND": "C/C=C(\\C)C(=O)O[C@H]1/C(C)=C/[C@H]2[C@@H](OC(=O)c3ccccc3)[C@@H](C)C[C@]2(O)[C@@H](OC(C)=O)[C@@H](C)/C=C/C(C)(C)[C@H](OC(C)=O)[C@H]1OC(C)=O", "IC50 [nM]": 1600}
{"COMPOUND": "CC(=O)O[C@@H]1C[C@@H](OC(C)=O)C(C)(C)/C=C/[C@H](C)[C@H](OC(C)=O)[C@@]2(O)C[C@H](C)[C@H](OC(=O)c3ccccc3)[C@@H]2/C=C/1C", "IC50 [nM]": 2630}
{"COMPOUND": "CC(=O)O[C@@H]1[C@@H](OC(C)=O)C(C)(C)/C=C/[C@H](C)[C@H](O)[C@@]2(OC(C)=O)C[C@H](C)[C@H](OC(=O)c3ccccc3)[C@@H]2/C=C(\\C)[C@@H]1OC(C)=O", "IC50 [nM]": 3400}

----------
# SYSTEM: Kir3.1/Kir3.4 (Homo sapiens) (UniProt P48549+P48544)
# EXPERIMENT SUMMARY: Inhibition of GIRK-1/4 channel (unknown origin) expressed in HEK293 cells at 10 uM by automated patch clamp method relative to control
# Type: cell-based
Tag: criterion met if measured inhibition is not below 70%, criterion not met if it is.

{"MOLECULE": "CC(=O)O[C@H]1/C(C)=C/[C@H]2[C@@H](OC(=O)c3ccccc3)[C@@H](C)C[C@]2(O)[C@@H](OC(C)=O)[C@@H](C)/C=C/C(C)(C)[C@H](O)[C@H]1O", "SYSTEM": "Kir3.1/Kir3.4 (Homo sapiens) (UniProt P48549+P48544)", "CLASS ASSIGNMENT": "criterion not met"}
{"MOLECULE": "CC(=O)O[C@H]1[C@@H](C)/C=C/C(C)(C)[C@H](O)[C@@H](O)[C@@H](O)/C(C)=C/[C@H]2[C@@H](OC(=O)c3ccccc3)[C@@H](C)C[C@@]21O", "SYSTEM": "Kir3.1/Kir3.4 (Homo sapiens) (UniProt P48549+P48544)", "CLASS ASSIGNMENT": "criterion not met"}
{"MOLECULE": "CC(=O)O[C@@H]1[C@@H](OC(C)=O)C(C)(C)/C=C/[C@H](C)[C@H](O)[C@@]2(OC(C)=O)C[C@H](C)[C@H](OC(=O)c3ccccc3)[C@@H]2/C=C(\\C)[C@@H]1OC(C)=O", "SYSTEM": "Kir3.1/Kir3.4 (Homo sapiens) (UniProt P48549+P48544)", "CLASS ASSIGNMENT": "criterion not met"}
{"MOLECULE": "CC(=O)OCC(=O)O[C@@H]1[C@H]2[C@@H](OC(=O)c3ccccc3)[C@@H](C)C[C@]2(O)[C@@H](OC(C)=O)[C@]2(C)C[C@@]1(OC(C)=O)C[C@H]1C(=O)C(C)(C)C[C@@H]12", "SYSTEM": "Kir3.1/Kir3.4 (Homo sapiens) (UniProt P48549+P48544)", "CLASS ASSIGNMENT": "criterion not met"}
{"MOLECULE": "CC(=O)O[C@@H]1C[C@@H](OC(C)=O)C(C)(C)/C=C/[C@H](C)[C@H](OC(C)=O)[C@@]2(O)C[C@H](C)[C@H](OC(=O)c3ccccc3)[C@@H]2/C=C/1C", "SYSTEM": "Kir3.1/Kir3.4 (Homo sapiens) (UniProt P48549+P48544)", "CLASS ASSIGNMENT": "criterion met"}
{"MOLECULE": "CC(=O)O[C@@H]1[C@@H](O)[C@@H](OC(C)=O)/C(C)=C/[C@H]2[C@@H](OC(=O)c3ccccc3)[C@@H](C)C[C@]2(O)[C@@H](OC(C)=O)[C@@H](C)/C=C/C1(C)C", "SYSTEM": "Kir3.1/Kir3.4 (Homo sapiens) (UniProt P48549+P48544)", "CLASS ASSIGNMENT": "criterion not met"}
{"MOLECULE": "C/C=C(/C)C(=O)O[C@H]1C(C)=C[C@@]23C(=O)[C@@H](C=C(C)[C@@H](O)[C@]12O)[C@H]1[C@@H](C[C@H]3C)C1(C)C", "SYSTEM": "Kir3.1/Kir3.4 (Homo sapiens) (UniProt P48549+P48544)", "CLASS ASSIGNMENT": "criterion not met"}
{"MOLECULE": "C/C=C(\\C)C(=O)O[C@H]1[C@@H](C)/C=C/C(C)(C)[C@H](OC(C)=O)[C@@H](OC(C)=O)[C@@H](O)/C(C)=C/[C@H]2[C@@H](OC(=O)c3ccccc3)[C@@H](C)C[C@@]21O", "SYSTEM": "Kir3.1/Kir3.4 (Homo sapiens) (UniProt P48549+P48544)", "CLASS ASSIGNMENT": "criterion not met"}
{"MOLECULE": "CC(=O)O[C@@H]1[C@@H](OC(C)=O)C(C)(C)/C=C/[C@H](C)[C@H](OC(C)=O)[C@@]2(O)C[C@H](C)[C@H](OC(=O)c3ccccc3)[C@@H]2/C=C(\\C)[C@@H]1O", "SYSTEM": "Kir3.1/Kir3.4 (Homo sapiens) (UniProt P48549+P48544)", "CLASS ASSIGNMENT": "criterion not met"}
{"MOLECULE": "C/C=C(/C)C(=O)OCC1(C)[C@H]2[C@@H]3C=C(COC(C)=O)[C@@H](O)[C@]4(O)[C@@H](OC(=O)/C(C)=C\\C)C(C)=C[C@]4(C3=O)[C@H](C)C[C@H]21 (stereo partly specified)", "SYSTEM": "Kir3.1/Kir3.4 (Homo sapiens) (UniProt P48549+P48544)", "CLASS ASSIGNMENT": "criterion not met"}
{"MOLECULE": "CC(=O)O[C@@H]1[C@@H](OC(C)=O)C(C)(C)/C=C/[C@H](C)[C@H](OC(C)=O)[C@@]2(O)C[C@H](C)[C@H](OC(=O)c3ccccc3)[C@@H]2/C=C(\\C)[C@@H]1OC(C)=O", "SYSTEM": "Kir3.1/Kir3.4 (Homo sapiens) (UniProt P48549+P48544)", "CLASS ASSIGNMENT": "criterion met"}
